Let's look at some compounds and their measured TGI.
# System: MCF7 breast
# procedureSummary: NCI tumour cell line growth inhibition, 48 h
measuredAttribute: TGI

>>> observedresult("CC(=O)O[C@@]12CO[C@@H]1CC(O)[C@@]1(C)C(=O)[C@H](O)C3=C(C)C(O)C[C@@](O)(C(OC(=O)c4ccccc4)C12)C3(C)C (stereo not given in full)")
"> 100 µM"
>>> observedresult("O=C(CBr)c1ccc2cc(Br)c3ccccc3c2c1")
"73.8 µM"
>>> observedresult("O=C1OCC2OC(=O)c3cc(O)c(O)c(O)c3-c3c(O)c(O)c(O)c4c3C(=O)OC(C2OC(=O)c2cc(O)c(O)c(O)c2-c2c1cc(O)c(O)c2O)C1OC(=O)C2C4=C(O)C(=O)C23Oc2cc(O)c4c(c2[C@H]13)O[C@H](c1ccc(O)c(O)c1)[C@@H](O)C4 (stereo not given in full)")
"46.3 µM"
>>> observedresult("Cc1c2c(C(N)=O)nccc2c(C)c2c1c1ccccc1n2Cc1ccccc1")
"> 100 µM"
>>> observedresult("Clc1nc(Cl)c2ncn(Cc3ccccc3Cn3cnc4c(Cl)nc(Cl)nc43)c2n1")
"4.99 µM"
>>> observedresult("CC1=NC(C)(COC(=O)C2(C)NC(C)(CO)CO2)COC1=O (stereo not given)")
"> 100 µM"
>>> observedresult("CS(=O)(=O)N1CC(CCl)c2ccc(O)cc21 (stereo not given)")
"> 100 µM"
>>> observedresult("O=C(NC1CCCCC1)c1ccc(Nc2ncnc3c2cnn3-c2ccccc2)cc1")
"> 100 µM"
>>> observedresult("Cc1n[n+](Cc2ccccc2)c2sc(N)nn12")
"> 100 µM"
>>> observedresult("CN1CCN(/C(N)=C(\\C#N)C(=O)Nc2ccc(Cl)cc2)CC1")
"> 100 µM"

====

# Test system: UACC-62 melanoma
# procedureSummary: NCI tumour cell line growth inhibition, 48 h
measuredAttribute: TGI

>>> observedresult("Cc1c2c(C(N)=O)nccc2c(C)c2c1c1ccccc1n2Cc1ccccc1")
"> 100 µM"
>>> observedresult("Cc1noc2c1-c1ccccc1C(c1ccc(Cl)cc1)=N[C@H]2CC(N)=O")
"> 58.9 µM"
>>> observedresult("COc1ccc(C2c3cc4c(cc3OC(N3CCOCC3)C2C)OCO4)cc1 (centres undefined)")
"> 95.6 µM"
>>> observedresult("CC(=O)O[C@]12CCCCCC1C1(O)C(O)CCCCC12 (some centres undefined)")
"> 100 µM"
